Attribution: patent US11267802B2

Catalogue of IC50 values
target: EGFR T790M/L858R (Homo sapiens, UniProt P00533, L858R/T790M); test: Mutant EGFR T790M/L858R activity inhibition assay (Caliper mobility shift); conditions: read-out: enzyme activity inhibition (IC50) EGFR T790M/L858R
Sequence (P00533 25-1210 T790M/L858R): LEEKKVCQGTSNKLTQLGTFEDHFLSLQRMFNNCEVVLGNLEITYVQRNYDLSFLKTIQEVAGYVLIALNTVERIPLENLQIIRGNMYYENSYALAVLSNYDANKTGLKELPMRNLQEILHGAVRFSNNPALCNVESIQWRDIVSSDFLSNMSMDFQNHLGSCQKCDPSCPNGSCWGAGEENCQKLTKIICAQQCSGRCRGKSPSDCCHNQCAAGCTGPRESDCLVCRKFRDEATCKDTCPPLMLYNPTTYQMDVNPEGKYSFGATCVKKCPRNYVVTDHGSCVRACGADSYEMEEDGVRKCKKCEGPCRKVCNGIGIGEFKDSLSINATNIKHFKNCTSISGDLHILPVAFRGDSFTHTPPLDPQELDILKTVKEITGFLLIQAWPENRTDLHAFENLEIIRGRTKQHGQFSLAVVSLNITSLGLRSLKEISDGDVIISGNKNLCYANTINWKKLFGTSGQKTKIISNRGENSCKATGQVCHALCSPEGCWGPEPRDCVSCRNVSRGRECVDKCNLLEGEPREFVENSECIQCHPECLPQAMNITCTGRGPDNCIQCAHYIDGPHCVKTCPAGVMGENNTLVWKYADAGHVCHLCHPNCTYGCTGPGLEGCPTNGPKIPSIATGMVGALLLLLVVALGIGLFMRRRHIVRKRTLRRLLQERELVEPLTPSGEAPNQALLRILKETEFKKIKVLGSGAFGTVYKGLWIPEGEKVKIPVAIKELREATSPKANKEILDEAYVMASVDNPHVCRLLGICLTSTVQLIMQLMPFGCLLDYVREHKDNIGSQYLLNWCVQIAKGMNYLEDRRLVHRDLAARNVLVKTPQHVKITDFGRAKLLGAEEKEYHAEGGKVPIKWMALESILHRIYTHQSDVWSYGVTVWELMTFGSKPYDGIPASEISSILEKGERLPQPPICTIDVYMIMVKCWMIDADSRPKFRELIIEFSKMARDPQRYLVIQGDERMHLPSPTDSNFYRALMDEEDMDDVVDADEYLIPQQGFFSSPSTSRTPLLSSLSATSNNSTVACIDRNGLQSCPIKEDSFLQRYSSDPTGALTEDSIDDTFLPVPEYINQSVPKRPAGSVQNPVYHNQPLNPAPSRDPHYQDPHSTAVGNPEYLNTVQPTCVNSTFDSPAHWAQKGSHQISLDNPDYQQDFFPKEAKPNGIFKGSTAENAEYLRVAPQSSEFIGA

compound-structure | IC50
C=CC(=O)Nc1cc(Nc2nccc(-n3c(=O)n(CC=C(C)C)c4ccccc43)n2)c(OC)cc1N(C)CCN(C)C | < 1 nM
COC/C=C/C(=O)Nc1cc(Nc2nccc(-n3ccc4ccccc43)n2)c(OC)cc1N(C)CCN(C)C | 1 to 10 nM
C=CC(=O)Nc1cc(Nc2nccc(-n3ccc4ccccc43)n2)c(OC)cc1N1CC[C@@H](N(C)C)C1 | < 1 nM
CCC#CC(=O)Nc1cc(Nc2nccc(-n3ccc4ccccc43)n2)c(OC)cc1N(C)CCN(C)C | 1 to 10 nM
C=CC(=O)Nc1cc(Nc2nccc(-n3c(=O)n(CC4CC4)c4cc(F)ccc43)n2)c(OC)cc1N(C)CCN(C)C | < 1 nM
